target of assay: OXA-1 (Escherichia coli, UniProt P13661)
Sequence (P13661 26-276): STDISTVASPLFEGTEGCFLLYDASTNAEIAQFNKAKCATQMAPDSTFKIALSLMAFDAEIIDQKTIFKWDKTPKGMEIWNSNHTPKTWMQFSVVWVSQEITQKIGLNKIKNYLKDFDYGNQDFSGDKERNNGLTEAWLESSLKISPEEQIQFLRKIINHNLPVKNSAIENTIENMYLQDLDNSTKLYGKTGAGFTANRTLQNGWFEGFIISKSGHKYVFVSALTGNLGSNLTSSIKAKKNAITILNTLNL
assay explanation: Competitive assay with nitrocefin (RSAI)
Assay type: biochemical, E. coli 1527E
Design: the beta-lactamase has to be extracted from the cells for the purpose of the present invention; made in house; host or cells: E. coli 1527E according to the earlier reading (crude cell extract)
Marks after values point to notes of the source that are not given here.
# Lookup of reported RSAI keyed by entry

Below are worked cases with known answers.
{"compound": "CO[C@@]1(NC(=O)C(C(=O)O)c2ccc(O)cc2)C(=O)N2C(C(=O)O)=C(CSc3nnnn3C)CO[C@@H]21 (stereo partly shown) [Moxalactam]", "RSAI": "4*"}
{"compound": "CC1(C)S[C@@H]2[C@H](/N=C/N3CCCCCC3)C(=O)N2[C@H]1C(=O)O [Mecil-linam, Mecillinam]", "RSAI": 400}
{"compound": "CCN1CCN(C(=O)N[C@@H](C(=O)N[C@@H]2C(=O)N3C(C(=O)O)=C(CSc4nnnn4C)CS[C@H]23)c2ccc(O)cc2)C(=O)C1=O [Cefopera-zone, cefoperazone]", "RSAI": 4.5}

Continue with the next compound.
Looking for the measured RSAI of CC1(C)S[C@@H]2[C@H](NC(=O)[C@H](N)c3ccccc3)C(=O)N2[C@H]1C(=O)O [Ampi-cillin, ampicillin] , can you help?
4

###

Recorded measurements of RSAI, one per entry
target of assay: SHV-1 (Escherichia coli)
Sequence (P0AD63 22-286): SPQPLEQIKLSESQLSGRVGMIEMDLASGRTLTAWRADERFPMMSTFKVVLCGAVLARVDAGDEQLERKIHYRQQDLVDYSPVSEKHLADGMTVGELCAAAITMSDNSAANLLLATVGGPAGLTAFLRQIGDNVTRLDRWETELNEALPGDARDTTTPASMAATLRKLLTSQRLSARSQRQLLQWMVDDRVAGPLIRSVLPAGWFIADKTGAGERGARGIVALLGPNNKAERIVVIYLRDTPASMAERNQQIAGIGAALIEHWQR
assay explanation: Competitive assay with nitrocefin (RSAI)
Assay type: biochemical, E. coli 2008E
Set-up: the beta-lactamase has to be extracted from the cells for the purpose of the present invention; made in house; host or cells: E. coli 2008E (crude cell extract)
Respond with the number and no other words.

// known answers, use as guide
{"molecule": "CC1(C)S[C@@H]2[C@H](NC(=O)C(C(=O)O)c3ccccc3)C(=O)N2[C@H]1C(=O)O (stereo partly shown)", "RSAI": 0.5}
{"molecule": "Cn1nnnc1SCC1=C(C(=O)O)N2C(=O)[C@@H](NC(=O)[C@H](O)c3ccccc3)[C@H]2SC1", "RSAI": 6.6}

Look up RSAI for this molecule: `CO[C@@]1(NC(=O)Cc2cccs2)C(=O)N2C(C(=O)O)=C(COC(N)=O)CS[C@@H]21`
600

Which RSAI reading was recorded for the molecule `CC1(C)S[C@@H]2[C@H](/N=C/N3CCCCCC3)C(=O)N2[C@H]1C(=O)O` ?
80

###

target of assay: OXA-3 (Pseudomonas aeruginosa, UniProt Q51429)
Sequence (Q51429 22-275): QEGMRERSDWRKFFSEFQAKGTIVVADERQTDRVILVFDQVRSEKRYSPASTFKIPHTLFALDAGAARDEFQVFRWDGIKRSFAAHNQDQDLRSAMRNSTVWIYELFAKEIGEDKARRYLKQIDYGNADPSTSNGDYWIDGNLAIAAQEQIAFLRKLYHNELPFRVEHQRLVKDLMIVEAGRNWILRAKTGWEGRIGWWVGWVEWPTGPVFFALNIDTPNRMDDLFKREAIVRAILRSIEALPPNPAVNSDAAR
assay explanation: Competitive assay with nitrocefin (RSAI)
Assay type: biochemical, E. coli R57B
Set-up: Normally, therefore, the beta-lactamase has to be extracted from the cells for the purpose of the present invention; endogenous in cells
Returns: string. Value is Satisfied if measured RSAI is below 9, and Not satisfied if it is greater than or equal to it.

{"mol": "CC1(C)S[C@@H]2[C@H](NC(=O)[C@H](N)c3ccc(O)cc3)C(=O)N2[C@H]1C(=O)O", "class label": "Satisfied"}
{"mol": "CO[C@@]1(NC(=O)Cc2cccs2)C(=O)N2C(C(=O)O)=C(COC(N)=O)CS[C@@H]21", "class label": "Satisfied"}

Check if RSAI falls below 9 for `CC1(C)S[C@@H]2[C@H](NC(=O)[C@H](NC(=O)N3CCN(S(C)(=O)=O)C3=O)c3ccccc3)C(=O)N2[C@H]1C(=O)O` .
Not satisfied

In plain terms, does `CC1(C)S[C@@H]2[C@H](NC(=O)[C@H](C(=O)O)c3ccsc3)C(=O)N2[C@H]1C(=O)O` come in under 9 for RSAI?
Not satisfied

Determine whether this compound shows RSAI lower than 9 (ties excluded): `CCN1CCN(C(=O)N[C@@H](C(=O)N[C@@H]2C(=O)N3C(C(=O)O)=C(CSc4nnnn4C)CS[C@H]23)c2ccc(O)cc2)C(=O)C1=O`
Satisfied

Hello, is RSAI of the following compound strictly smaller than 9? `Cn1nnnc1SCC1=C(C(=O)O)N2C(=O)[C@@H](NC(=O)[C@H](O)c3ccccc3)[C@H]2SC1`
Satisfied
